meta.source: PubChem BioAssay (NCATS)

# assay_summary: qHTS assay for small molecule activators of the nuclear factor-kappa B (NF-kB) signaling pathway (AID 651749); also: series mostly up to about 77 µM; % of control where 0% means no effect
# test_conditions: NF-kB-bla ME-180 cells, beta-lactamase FRET ratio, 16 h; active compounds read high
# Excerpt: National Center for Advancing Translational Sciences [NCATS] NIH Chemical Genomics Center [NCGC] U.S. Environmental Protection Agency [EPA] National Institutes of Environmental Health Sciences [NIEHS] National Toxicology Program [NTP] […] This system quantitates NF-kB activity using a FRET-based assay system where beta-lactamase expression disrupts FRET, allowing for fluorescent measurement of activity. […]
Inconclusive results are not listed.
Measured activation values are reported for all entries that follow.
Reply with just the number (in %).

Would you please look over these solved cases?
Just so you know, measured activation for "CC(C)OC(=O)Nc1ccccc1" came out at 0.27

Just so you know, measured activation for "Oc1ccccc1Cl" came out at -1.13

Just so you know, measured activation for "CCOP(=S)(OCC)SCSCC" came out at -1.47

Just so you know, measured activation for "c1ccc2c(c1)-c1cccc3cccc-2c13" came out at 0.379

Just so you know, measured activation for COC1=CC(=O)OC(CCc2ccc3c(c2)OCO3)C1 (centres undefined) came out at -0.795

Just so you know, measured activation for "CC(=O)/C=C/c1ccccc1" came out at -1.47

Just so you know, measured activation for "Oc1c(Cl)c(Cl)c(Cl)c(Cl)c1Cl" came out at -1.59

Just so you know, measured activation for "c1ccc(Nc2cccc3ccccc23)cc1" came out at -0.293

Switching to the query record.
Just so you know, measured activation for "OCCN(CCO)CCO" came out at -1.09
